SYSTEM_UNDER_TEST: adenosine A2B receptor (Homo sapiens (Human), UniProt P29275)
Sequence (P29275 whole entry): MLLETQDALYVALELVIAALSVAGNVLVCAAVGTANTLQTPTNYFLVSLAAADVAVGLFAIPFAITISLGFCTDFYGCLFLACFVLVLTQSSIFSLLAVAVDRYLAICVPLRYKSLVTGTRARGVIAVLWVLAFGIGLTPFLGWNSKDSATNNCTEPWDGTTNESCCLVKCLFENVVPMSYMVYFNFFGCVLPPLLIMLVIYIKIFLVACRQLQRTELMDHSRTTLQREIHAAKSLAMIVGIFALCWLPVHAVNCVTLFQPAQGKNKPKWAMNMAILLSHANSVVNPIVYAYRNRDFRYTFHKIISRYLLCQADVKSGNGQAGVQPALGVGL
MEASUREMENT_DESCRIPTION: Adenosine receptor activity assay (Table 1), A2B activity
Assay type: biochemical
EXPERIMENTAL_PARAMETERS: A2A activity to A2B activity (A2A/A2B)
MEASURED_METRIC: Ratio
I'd appreciate a reply containing only the number, no unit.

[[record]]
compound = "O=C(c1nc(NCc2cccnn2)nc2ccsc12)N1CCCC1 [Example Z43]"
system_under_test = "adenosine A2B receptor (Homo sapiens (Human), UniProt P29275)"
measured_metric = "Ratio"
number = 33.44

[[record]]
compound = "Cc1cc2nc(N[C@@H](C)c3cccnc3)nc(C(=O)NCCN3CCOCC3)c2s1 [Example Z378]"
system_under_test = "adenosine A2B receptor (Homo sapiens (Human), UniProt P29275)"
measured_metric = "Ratio"
number = 15.93

[[record]]
compound = "C[C@H](Nc1nc(C(=O)N2CC[C@@H](CO)C2)c2sccc2n1)c1cncc(F)c1 [Example Z295]"
system_under_test = "adenosine A2B receptor (Homo sapiens (Human), UniProt P29275)"
measured_metric = "Ratio"
number = 68.33

[[record]]
compound = "C[C@H](Nc1nc(C(=O)N[C@H]2CCNC2)c2sccc2n1)c1ccccn1 [Example Z150]"
system_under_test = "adenosine A2B receptor (Homo sapiens (Human), UniProt P29275)"
measured_metric = "Ratio"
number = 7.05


Query string: Look up Ratio for this compound: COC1CN(C(=O)c2nc(N[C@@H](C)c3ccccn3)nc3ccsc23)C1 [Example Z108]
Result string: 10.93

Query string: Param item: COc1cc(F)cc(CNc2nc(C(=O)N3CC(O)C3)c3sccc3n2)c1 [Example Z137]
Result string: 19.91

Query string: Repeat with C[C@H](Nc1nc(C(=O)N2CC[C@@H](O)C2)c2sccc2n1)c1cncc(Cl)c1 [Example Z237]
Result string: 65.87

Query string: Moving on to the next compound: C[C@H](Nc1nc(C(=O)NCC(C)(C)O)c2sccc2n1)c1cncc(F)c1 [Example Z238]
Result string: 22.98

Query string: Queued: COc1ccc(CNC(=O)c2nc(NCc3cccnc3C)nc3ccsc23)cn1 [Example Z94]
Result string: 1.00

Query string: Next compound: Cc1cc2nc(N[C@@H](C)c3cccnc3)nc(C(=O)N3CC[C@@H](CO)C3)c2s1 [Example Z335]
Result string: 200.00

Query string: And then Cc1cc2nc(N[C@@H](C)c3ccccn3)nc(C(=O)NCCO)c2s1 [Example Z353] , what is it?
Result string: 53.12

Query string: O=C(c1nc(NCCc2ccc(O)cc2)nc2ccsc12)N1CCCC1 [Example Z359] , same question.
Result string: 2.57

Query string: Please give the result for C[C@H](Nc1nc(C(=O)NCCC2CCN(C(=O)OC(C)(C)C)CC2)c2sccc2n1)c1ccccn1 [Example Z342] too.
Result string: 2.11

Query string: Entry to check: C[C@H](Nc1nc(C(=O)N2CCCC2)c2sccc2n1)c1cncc(Cl)c1 [Example Z231]
Result string: 88.17

Query string: Continue with Cc1cc2nc(N[C@@H](C)c3cccnc3)nc(C(=O)N3CC[C@@H](O)C3)c2s1 [Example Z281]
Result string: 88.64

Query string: Can you handle C[C@H]1CCN(C(=O)c2nc(N[C@@H](C)c3cccnc3)nc3ccsc23)C1 [Example Z63] next?
Result string: 12.78

Query string: Now try CCC(NC(=O)c1nc(N[C@@H](C)c2cccnc2)nc2ccsc12)c1cccnc1 (some centres unmarked) [Example Z24] .
Result string: 2.92
